target: human Cereblon WT GST-tagged protein (Homo sapiens); construct: purchased CISBIO 64BDCRBNPEH; assay: CRBN-binding affinity, HTRF (CEREBLON BINDING kit); details: CRBN binding, HTRF, 3 hours at room temperature; read-out: HTRF IC50
Sequence (Q96SW2 whole entry): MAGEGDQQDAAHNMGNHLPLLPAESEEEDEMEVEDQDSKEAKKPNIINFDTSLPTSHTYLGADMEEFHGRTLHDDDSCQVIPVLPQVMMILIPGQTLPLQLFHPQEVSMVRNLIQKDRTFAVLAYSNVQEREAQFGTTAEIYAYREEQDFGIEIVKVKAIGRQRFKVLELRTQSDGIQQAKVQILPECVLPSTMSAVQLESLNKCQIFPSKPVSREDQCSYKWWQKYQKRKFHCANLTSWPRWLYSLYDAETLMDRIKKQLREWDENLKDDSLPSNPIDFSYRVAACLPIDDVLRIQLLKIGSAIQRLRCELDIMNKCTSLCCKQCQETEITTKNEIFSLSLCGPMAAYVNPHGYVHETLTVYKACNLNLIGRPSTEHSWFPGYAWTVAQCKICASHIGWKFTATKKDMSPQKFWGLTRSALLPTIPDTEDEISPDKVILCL
# reported IC50; entries follow

Documented IC50 of Cc1ccc(Sc2ccccc2N2CCN(Cc3ccc4c(c3)CN(C3CCC(=O)NC3=O)C4=S)CC2)c(C)c1 (stereo not shown) [GT-05092] : 500 to 1000 nM

Entry under test: O=C1CCC(N2Cc3ccc(CN4CCN(C(c5ccccc5)c5ccccn5)CC4)cc3C2=S)C(=O)N1 (stereo not shown) [GT-05041] . Its IC50 was 1500 to 1900 nM

Input O=C1CCC(N2Cc3cc(CN4CC=C(c5c[nH]c6ncccc56)CC4)ccc3C2=S)C(=O)N1 (stereo not shown) [GT-05248] . Output IC50: < 100 nM

Lab note: measured IC50 of O=C1CCC(N2Cc3cc(CN4CCC(Nc5ccccc5-c5ccc(Cl)cc5)CC4)ccc3C2=S)C(=O)N1 (stereo not shown) [GT-05109] was 500 to 1000 nM

Memo: Cc1cscc1C1=CCN(Cc2ccc3c(c2)CN(C2CCC(=O)NC2=O)C3=S)CC1 (stereo not shown) [GT-05145] , reported IC50: < 100 nM
